# EXPERIMENTAL TARGET: purified human DHFR (Homo sapiens, UniProt P00374)
PROPERTY NAME: IC50 (nM)

Nc1nc(N)c2c(ccc3c2ccn3Cc2ccnc(F)c2)n1 [fluorofolin]: 14

* * *

# EXPERIMENTAL TARGET: purified E. coli DHFR (FolA) (Escherichia coli)
PROPERTY NAME: IC50

Nc1nc(N)c2c(ccc3c2ccn3Cc2ccnc(F)c2)n1: 2.5 nM
